B1: TOR1AIP2 (parent)
chain: YKYCDHENAAFKDVALVLTVLLEE

variants of: B1; test: protein stability index of a GFP-peptide fusion (GPS, HEK-293T) (PSI 1-6); higher = more stable; settings: c terminus: a fixed tail appended;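 further: lentivirally expressed fusions sorted by FACS into six bins by GFP to DsRed ratio, PSI derived from sequencing read proportions per bin multiplied by bin number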
// reported protein stability index for each item listed

| mutation-name | protein stability index |
| --- | --- |
| T19H | 1.67 |
| N8M | 3.45 |
| K12C | 4.02 |
